test: NCI Yeast Anticancer Drug Screen. Data for the mlh1 rad18 strain (AID 175); settings: S. cerevisiae mlh1 rad18 strain growth inhibition; at 5.0 µM (retest, dose inferred, filed as 0.5)
Compounds without any hit were thinned out: in the full panel of roughly 79,000, 15% have a hit. Calls of active or inactive are those of the source. Rule as the data show it: active = growth inhibition above about 70%; inactive = the rest.
Classes used: t for active, f for inactive

> print(dat)
                                    molecule  class.assignment
 1  CCCCNCCC1(c2ccccc2)C(=O)Oc2ccccc21 (stereo unspecified)                 f
 2      CC(=O)OC1=C(CC(C)C)C(=O)c2ccccc2C1=O                 f
 3  O=C(/C=C(/Nc1ccccc1)C(=O)c1ccccc1)c1ccccc1                 f
 4         C/C(=N\NC(=S)N1CCC(O)CC1)c1ccccn1                 f
 5  CN1CCCC1c1cccc(Br)c1 (stereo unspecified)                 f
 6   COc1ccc(C(=O)Cn2c(C(C)=O)nc3ccccc32)cc1                 f
 7  CN(C)CCC(=O)N1C/C(=C\c2ccc(Cl)c(Cl)c2)C(=O)/C(=C/c2ccc(Cl)c(Cl)c2)C1                 t
 8  O=C(Nc1nc2ccc([N+](=O)[O-])cc2s1)C(=O)C(C1OC(=O)c2ccccc21)[N+](=O)[O-] (stereo unspecified)                 f
 9       CC(/C=C/c1ccc(Cl)c(Cl)c1)=N\NC(N)=S                 f
10  COc1cc(OC(C)C)cc2c1C(=O)C(C(O)(O)C(F)(F)F)=CC2=O                 f
11               Cc1cc(SCc2ccccc2)cc(C)[o+]1                 f
